- System: CAKI-1 renal
- TEST: NCI-60 one-dose screen, 48 h (100 = growth as untreated, 0 = no growth, -100 = all killed)
- CONDITION: 10 µM unless noted
Compounds without any hit were thinned out: in the full panel of roughly 83,000, 20% have a hit.
VALUE_KIND: growth (%)
Note: unit % is implicit; provide only the numeric part.

{"COMPOUND": "CC(C)c1ccc(COCc2cc(CN3CCCC3)c(O)c3ncccc23)cc1", "UNIT_ABBREVIATION": "%", "growth": 3.91}
{"COMPOUND": "Cc1ccc(-c2cc(-c3ccc(Cl)cc3)nc(NC(=O)c3cccnc3)n2)cc1", "UNIT_ABBREVIATION": "%", "growth": 94.2}
{"COMPOUND": "C=CCc1c(O)c(C(=O)/C=C/c2ccc(Cl)cc2)c(OC)c2ccoc12", "UNIT_ABBREVIATION": "%", "growth": 19.5}
{"COMPOUND": "COc1ccc(Cc2cc(-c3ccccc3)nn(Cc3ccccc3)c2=O)cc1OC", "UNIT_ABBREVIATION": "%", "growth": 46.3}
{"COMPOUND": "O=C(Nc1cc(Cl)ccc1O)c1ccc(Nc2ccnc(C(F)(F)F)c2)cc1", "UNIT_ABBREVIATION": "%", "growth": 58.7}

// recorded growth for COC(C(=O)[C@@H](O)[C@@H](C)O)[C@@H]1Cc2cc3cc(O[C@H]4C[C@@H](O[C@H]5C[C@@H](O)[C@H](O)C(C)O5)[C@H](O)C(C)O4)c(C)c(O)c3c(O)c2C(=O)[C@H]1O[C@H]1C[C@@H](O[C@H]2C[C@@H](O[C@H]3C[C@@H](O)[C@H](OC)C(C)O3)[C@@H](O)C(C)O2)[C@H](O)C(C)O1 (stereo partly drawn) : 13.7

// recorded growth for COC(=O)[C@]1(C)CCC[C@]2(C)[C@H]3C[C@H]4C(C(C)C)=C[C@]3(CC[C@H]21)[C@H]1[C@@H]4[C@@H](OCCC#N)CC[C@@H]1OCCC#N : 51.8

// recorded growth for Cc1cccc(N2CCN(CC(O)COc3ccc(Cl)cc3)CC2)c1 (stereo not drawn) : 84.5

// recorded growth for CCOC(=O)CSc1ncnc2c1c(-c1ccccc1)c(-c1ccccc1)n2-c1ccc(C)cc1 : 75.6

// recorded growth for COc1ccc2cc(C(=O)c3coc4ccc(O)cc34)ccc2c1 : 92.6

// recorded growth for CC(C)(C)c1cc(-c2nc3ccc(N4CCN(S(C)(=O)=O)CC4)cc3[nH]2)cc(C(C)(C)C)c1O : 75.5

// recorded growth for O=C(Nc1cccc([N+](=O)[O-])c1)c1cc2ccccc2cc1O : -22.9

// recorded growth for Cc1nnc(NC(=O)c2nc(S(=O)(=O)Cc3ccc(F)cc3)ncc2Cl)s1 : -86.3

// recorded growth for CCOC(=O)C#Cc1c(C(=O)OCC)nnn1[C@@H]1O[C@H](CO)[C@H]2OC3(CCCCC3)O[C@H]21 : -99.7

====

Quick reference: growth of the listed items.
- System: SW-620 colon
- TEST: NCI-60 one-dose screen, 48 h (100 = growth as untreated, 0 = no growth, -100 = all killed)
- CONDITION: 10 µM unless noted
This is part of a sample that, as a whole, favours compounds with a hit. Of some 83,000 tested, about 20% had one in any assay.
Note: unit % is implicit; provide only the numeric part.

See these solved cases before continuing.
{"COMPOUND": "COc1ccc(-c2nc3c(c(-c4ccccc4)nn3-c3ccccc3)c(-c3ccc(N4CCOCC4)cc3)c2C#N)cc1", "growth, %": 90.4}
{"COMPOUND": "COc1ccccc1Nc1nc2c(s1)C1=CC[C@H]3[C@@H]4CC[C@H]([C@H](C)CCCC(C)C)[C@@]4(C)CC[C@@H]3[C@@]1(C)CC2", "growth, %": 101}
{"COMPOUND": "COc1ccc(C/C(C)=C(/c2ccc(OCCN3CCCCC3)cc2)c2ccc(OC(=O)NCc3ccccc3)cc2)cc1", "growth, %": -83.5}
{"COMPOUND": "O=C1COCCN1c1ccc(Nc2nc(Cl)nc(OCc3cn(Cc4ccccc4)nn3)n2)cc1", "growth, %": 88.6}
{"COMPOUND": "Fc1ccc(-c2nn(-c3ccccc3)cc2-c2nc3ccccc3o2)cc1", "growth, %": 63.1}
{"COMPOUND": "CCCCCC(=O)OCC(=O)O[C@@H]1C[C@]2(C(C)C)O[C@@]1(C)[C@@H]1CC[C@@H](C)[C@H]1[C@@H]2OC(=O)/C=C/c1ccccc1", "growth, %": 48.9}

Field growth (SW-620 colon), entry CC(C)CCC[C@@H](C)[C@H]1CC[C@H]2[C@@H]3CC=C4C[C@@H](C(C(=O)O)C(=O)O)CC[C@]4(C)[C@H]3CC[C@]12C : -39.7

Field growth (SW-620 colon), entry CCOC(=O)Cn1c(O)c(N=Nc2ccc(S(N)(=O)=O)cc2)c2cc(Br)ccc21 : 62.7

Field growth (SW-620 colon), entry Cc1cccc2c1NC(=O)C2(c1ccc(O)cc1)c1ccc(O)cc1 : 103

Field growth (SW-620 colon), entry CC(C)c1ccc(NC(=O)Nc2ccc(NC(=O)CCCC(=O)NOCc3ccccc3)cc2)cc1 : 107

Field growth (SW-620 colon), entry C[C@]12C=CC(=O)C=C1CCC1C2[C@@H](O)C[C@@]2(C)C1CC[C@]2(O)C(=O)COC(=O)CCC(=O)O (some centres not stated) : 105

Field growth (SW-620 colon), entry COc1cc2oc(-c3cccc(NC(=O)c4cccc(Br)c4)c3)cc(=O)c2c(OC)c1OC : 65.1

Field growth (SW-620 colon), entry COc1cc2c(c(OC)c1OC)CCC(c1cccc(C(=O)Nc3cccc(Br)c3)c1)O2 (configuration not stated) : 79.6
